Please respond with reported binding normalized to PSGL-1 for every item in the list.
- Target system: T1, Human fibrinogen protein (ThermoFisher, RP-43142) (human, UniProt P02671 20-629; P02675 31-491; P02679 27-453, limits assumed, natural sulfotyrosines)
- T1 construct: mature; Native dimer with 3 pairs of non-identical chains; also called gamma-fibrinogen; γ fibrinogen protein
- T1 sequence (looked up) 1: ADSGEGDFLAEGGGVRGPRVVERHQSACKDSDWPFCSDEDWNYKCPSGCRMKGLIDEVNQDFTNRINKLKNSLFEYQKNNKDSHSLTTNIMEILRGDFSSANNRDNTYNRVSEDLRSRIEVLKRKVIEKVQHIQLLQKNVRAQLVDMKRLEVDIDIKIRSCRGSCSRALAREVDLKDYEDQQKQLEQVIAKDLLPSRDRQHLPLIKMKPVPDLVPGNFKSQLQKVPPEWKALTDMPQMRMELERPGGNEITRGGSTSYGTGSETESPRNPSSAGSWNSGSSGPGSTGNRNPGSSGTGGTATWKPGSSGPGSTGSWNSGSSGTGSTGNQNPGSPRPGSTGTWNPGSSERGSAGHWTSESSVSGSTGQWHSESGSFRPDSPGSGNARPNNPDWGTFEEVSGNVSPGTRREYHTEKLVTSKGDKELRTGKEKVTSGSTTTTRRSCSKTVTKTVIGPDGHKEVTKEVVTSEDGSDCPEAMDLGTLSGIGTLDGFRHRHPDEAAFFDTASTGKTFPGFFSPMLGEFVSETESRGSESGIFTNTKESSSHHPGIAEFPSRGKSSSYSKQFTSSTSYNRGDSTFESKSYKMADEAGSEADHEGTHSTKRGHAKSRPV
- T1 sequence (looked up) 2: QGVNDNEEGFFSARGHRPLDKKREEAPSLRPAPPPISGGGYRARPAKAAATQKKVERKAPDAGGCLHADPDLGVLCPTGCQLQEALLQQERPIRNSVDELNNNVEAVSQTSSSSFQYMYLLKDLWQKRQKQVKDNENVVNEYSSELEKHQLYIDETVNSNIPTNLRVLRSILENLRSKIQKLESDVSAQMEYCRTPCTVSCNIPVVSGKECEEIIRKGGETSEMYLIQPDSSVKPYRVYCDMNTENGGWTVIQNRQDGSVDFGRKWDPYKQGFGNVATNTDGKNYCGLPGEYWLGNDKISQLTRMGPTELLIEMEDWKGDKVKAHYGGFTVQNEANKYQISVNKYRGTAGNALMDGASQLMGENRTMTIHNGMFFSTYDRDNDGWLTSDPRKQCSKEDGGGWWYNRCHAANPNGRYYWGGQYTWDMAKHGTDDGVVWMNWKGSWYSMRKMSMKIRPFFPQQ
- T1 sequence (looked up) 3: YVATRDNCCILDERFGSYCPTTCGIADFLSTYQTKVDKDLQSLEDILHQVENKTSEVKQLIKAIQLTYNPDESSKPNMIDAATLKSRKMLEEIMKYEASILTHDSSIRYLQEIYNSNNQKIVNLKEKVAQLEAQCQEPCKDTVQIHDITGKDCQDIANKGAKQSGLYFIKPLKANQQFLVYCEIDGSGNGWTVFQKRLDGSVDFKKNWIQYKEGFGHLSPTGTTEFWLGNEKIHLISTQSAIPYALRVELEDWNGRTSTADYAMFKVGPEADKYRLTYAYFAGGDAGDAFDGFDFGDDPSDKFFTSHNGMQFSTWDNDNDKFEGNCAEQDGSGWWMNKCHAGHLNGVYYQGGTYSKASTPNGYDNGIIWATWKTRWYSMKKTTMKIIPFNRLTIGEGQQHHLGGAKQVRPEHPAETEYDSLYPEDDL
- Procedure details: ELISA, 50 nM mAb

I would be grateful if you could share the reported binding normalized to PSGL-1 for 19I01 (antibody, V domains shown, From mouse immunisation; only variable domains given; also called 19101) VH: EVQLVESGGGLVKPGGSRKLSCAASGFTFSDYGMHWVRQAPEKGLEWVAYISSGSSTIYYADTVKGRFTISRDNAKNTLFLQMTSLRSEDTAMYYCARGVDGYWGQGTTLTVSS VL: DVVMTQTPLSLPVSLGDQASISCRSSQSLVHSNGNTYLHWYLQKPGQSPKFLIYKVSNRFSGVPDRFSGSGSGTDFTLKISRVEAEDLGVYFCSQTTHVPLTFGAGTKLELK .
-0.01

Entry 09A02 (antibody, IgG4, V domains shown) VH: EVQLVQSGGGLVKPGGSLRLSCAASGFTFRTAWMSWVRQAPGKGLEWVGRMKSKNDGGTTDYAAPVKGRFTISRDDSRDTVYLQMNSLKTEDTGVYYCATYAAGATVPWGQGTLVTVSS VL: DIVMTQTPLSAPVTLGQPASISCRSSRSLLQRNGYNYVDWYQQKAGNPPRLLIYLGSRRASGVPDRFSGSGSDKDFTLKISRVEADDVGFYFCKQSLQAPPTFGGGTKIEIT has what binding normalized to PSGL-1?
0.29
